Tested on: grass (a European grass: bent grass)
TEST SUMMARY: Effects of proline, glutamine, arginine and urea on hydroponic cultivation of grass
Assay type: in vivo
CONDITION: 40th day; 5 roots per group; foliar once a week, proline 20 ppm, others at the same nitrogen amount
Experimental: Seedlings of grass (a European grass: bent grass) were raised and divided into five groups of A to E, and hydroponic cultivation was carried out (Table 2 shown below). Group A was the control. Concerning Group B, proline was applied onto leaf surfaces once a week in an amount of 20 ppm. Furthermore, five average stocks which had not been withered were sampled from each group and examined.
Average leaf length for assorted compounds
// note: answer is a bare numeric in cm

Consider the worked cases shown below.
Prompt: Item NC(N)=O [Urea, urea, reference compound] with grass (a European grass: bent grass) - Average leaf length?
Response: 15

Prompt: Item N=C(N)NCCC[C@H](N)C(=O)O with grass (a European grass: bent grass) - Average leaf length?
Response: 18

Prompt: Item O=C(O)[C@@H]1CCCN1 with grass (a European grass: bent grass) - Average leaf length?
Response: 14

Next:
Prompt: Item NC(=O)CC[C@H](N)C(=O)O with grass (a European grass: bent grass) - Average leaf length?
Response: 18
